- Assayed Target: recombinant guanylate cyclase reporter cell line (Rattus norvegicus, UniProt P19686+P20595)
- Construct: expressed in transfected cells; host or cells: recombinant reporter cell line
- Sequence (P19686 1-690): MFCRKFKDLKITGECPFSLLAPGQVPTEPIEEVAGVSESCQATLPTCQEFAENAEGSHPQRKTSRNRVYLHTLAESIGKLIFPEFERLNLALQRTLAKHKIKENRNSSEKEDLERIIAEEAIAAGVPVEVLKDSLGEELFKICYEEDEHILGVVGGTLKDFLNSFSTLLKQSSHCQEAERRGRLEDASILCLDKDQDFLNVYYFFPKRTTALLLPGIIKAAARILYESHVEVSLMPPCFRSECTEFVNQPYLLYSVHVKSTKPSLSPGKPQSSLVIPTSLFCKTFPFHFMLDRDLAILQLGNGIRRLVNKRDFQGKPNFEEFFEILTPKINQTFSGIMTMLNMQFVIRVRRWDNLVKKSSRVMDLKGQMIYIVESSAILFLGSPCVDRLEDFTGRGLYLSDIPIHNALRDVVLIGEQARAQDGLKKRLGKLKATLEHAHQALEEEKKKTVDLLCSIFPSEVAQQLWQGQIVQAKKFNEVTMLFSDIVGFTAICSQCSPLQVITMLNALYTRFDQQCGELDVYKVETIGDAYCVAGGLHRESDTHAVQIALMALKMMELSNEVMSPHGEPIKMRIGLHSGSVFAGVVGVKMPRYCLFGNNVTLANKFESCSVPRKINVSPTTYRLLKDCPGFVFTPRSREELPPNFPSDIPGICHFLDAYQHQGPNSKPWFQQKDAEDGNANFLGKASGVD
- Sequence (P20595 1-619): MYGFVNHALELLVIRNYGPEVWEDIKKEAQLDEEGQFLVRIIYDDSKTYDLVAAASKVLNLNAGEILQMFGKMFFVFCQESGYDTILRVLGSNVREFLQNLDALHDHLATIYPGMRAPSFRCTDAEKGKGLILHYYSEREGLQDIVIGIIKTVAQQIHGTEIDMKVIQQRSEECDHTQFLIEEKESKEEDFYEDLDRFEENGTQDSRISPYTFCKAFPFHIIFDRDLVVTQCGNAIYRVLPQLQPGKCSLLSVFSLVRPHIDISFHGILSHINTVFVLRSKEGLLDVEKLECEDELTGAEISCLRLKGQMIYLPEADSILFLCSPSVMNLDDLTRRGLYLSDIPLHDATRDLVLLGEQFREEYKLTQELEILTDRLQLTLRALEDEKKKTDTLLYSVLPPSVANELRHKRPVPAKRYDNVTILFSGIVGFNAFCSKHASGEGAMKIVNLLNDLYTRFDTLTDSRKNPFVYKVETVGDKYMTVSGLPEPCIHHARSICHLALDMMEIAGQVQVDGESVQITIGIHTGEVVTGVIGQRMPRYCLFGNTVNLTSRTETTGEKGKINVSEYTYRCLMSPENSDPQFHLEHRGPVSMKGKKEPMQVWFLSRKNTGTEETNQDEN
- Run Description: Effect on a recombinant guanylate cyclase reporter cell line
- Format: cell-based
- Details: MEC = minimum effective concentration; in some cases mean values for individual determinations
Counter-ions that a name gives are not always drawn.
As shown below, each of these compounds has a reported MEC value.
All answers are understood in µM, so give the number only.

These recorded examples may help you get a feel for the data.
{"Compound": "Cc1cc(OCc2c(F)cccc2F)c2nc(C)c(-c3cc(CC(C)(C)N)no3)n2c1 [Example 144]", "Readout Label": "MEC", "Obs Value": 0.3}
{"Compound": "CCC(C)c1nnc(-c2c(C)nc3c(OCC4CCCCC4)cccn23)o1 (stereo not drawn) [Example 70]", "Readout Label": "MEC", "Obs Value": 3.0}

Name the reported MEC value associated with the compound Cc1nc2c(OCc3c(F)cccc3F)cccn2c1-c1cccc(N2CCCCC2)c1 [Example 38] 3.0

Name the reported MEC value associated with the compound Cc1cc(OCc2c(F)cccc2F)c2nc(C)c(-c3cncc(C(=O)O)c3)n2c1 [Example 76, trifluoroacetate] 3.0

Name the reported MEC value associated with the compound COC(=O)C1CC1n1cc(-c2c(C)nc3c(OCc4c(F)cccc4F)cc(C)cn23)cn1 (stereo not drawn) [Example 106] 0.3

Name the reported MEC value associated with the compound COC(=O)C(C)n1cc(-c2c(C)nc3c(OCc4c(F)cccc4F)cc(C)cn23)cn1 (stereo not drawn) [Example 104] 0.3

Name the reported MEC value associated with the compound Cc1nc2c(OCc3c(F)cccc3F)cccn2c1-c1ccc2c(ccn2C)c1 [Example 36] 3.0

Name the reported MEC value associated with the compound COCCN(C)Cc1cc(-c2c(C)nc3c(OCc4c(F)cccc4F)cccn23)ccc1OC [Example 27] 1.0
